target: Nonstructural protein 3 (Zika virus) (UniProt A0A024AXB9); conditions: PRVABC59, Concentration 15.0 uM, Number of replicates 1.0
Sequence (A0A024AXB9 as listed by the source): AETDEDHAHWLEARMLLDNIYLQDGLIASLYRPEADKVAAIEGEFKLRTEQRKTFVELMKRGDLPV
Description: Functional biochemical assay to identify treatments for viral infectious disease that targets Zika NS2B-NS3 protease. Utilizing a direct enzyme activity measurement method, reading the fluorescence intensity is used to characterize the relative potency of inhibitors as % inhibition.
In all, about 2,700 compounds went through this assay and about 160 (5.9%) showed an effect of 50% or more. This excerpt belongs to a sample that is enriched for strong results.
Note to self: class = bucket of inhibition, per low group: < 20%; middle group: ≥ 20% and < 40%; high group: ≥ 40%

For orientation, consider the following solved cases.
{"smiles_entry": "COc1ncc(Br)cc1NC(=O)c1cc(Cl)ccc1NS(=O)(=O)c1ccc(Oc2ccccc2Cl)cc1", "measured_on": "Nonstructural protein 3 (Zika virus) (UniProt A0A024AXB9)", "category_label": "middle group"}
{"smiles_entry": "Cc1cc(NC(=O)c2cc(Cl)ccc2NS(=O)(=O)c2ccc(Oc3ccccc3Cl)cc2)cc(C)c1Br", "measured_on": "Nonstructural protein 3 (Zika virus) (UniProt A0A024AXB9)", "category_label": "middle group"}
{"smiles_entry": "O=C(Nc1ccccc1-c1ccccc1)c1cc(Cl)ccc1NS(=O)(=O)c1ccc(Oc2ccccc2Cl)cc1", "measured_on": "Nonstructural protein 3 (Zika virus) (UniProt A0A024AXB9)", "category_label": "middle group"}
{"smiles_entry": "O=C(c1cc(Cl)ccc1NS(=O)(=O)c1ccc(Oc2ccccc2Cl)cc1)N1CCNC(=O)C12CCCCC2", "measured_on": "Nonstructural protein 3 (Zika virus) (UniProt A0A024AXB9)", "category_label": "low group"}

Query block: Which of the defined bands does the recorded inhibition of O=C(Nc1ncc(Br)nc1Cl)c1cc(Cl)ccc1NS(=O)(=O)c1ccc(Oc2ccccc2Cl)cc1 sit within?
Result block: low group

Query block: Which of the defined bands does the recorded inhibition of CCOc1ccccc1CCNC(=O)c1cc(Cl)ccc1NS(=O)(=O)c1ccc(Oc2ccccc2Cl)cc1 sit within?
Result block: low group

Query block: Which of the defined bands does the recorded inhibition of O=C(Nc1ccc(I)c(F)c1)c1cc(Cl)ccc1NS(=O)(=O)c1ccc(Oc2ccccc2Cl)cc1 sit within?
Result block: middle group

Query block: Which of the defined bands does the recorded inhibition of O=C(NCc1ccccc1)c1cc(Cl)ccc1NS(=O)(=O)c1ccc(Oc2ccccc2Cl)cc1 sit within?
Result block: low group

Query block: Which of the defined bands does the recorded inhibition of O=C(Nc1cccc(Br)c1)c1cc(Cl)ccc1NS(=O)(=O)c1ccc(Oc2ccccc2Cl)cc1 sit within?
Result block: high group

Query block: Which of the defined bands does the recorded inhibition of O=C(NCc1ccc2c(c1)OCCO2)c1cc(Cl)ccc1NS(=O)(=O)c1ccc(Oc2ccccc2Cl)cc1 sit within?
Result block: middle group

Query block: Which of the defined bands does the recorded inhibition of O=C(Nc1cc(Cl)c(O)c(Cl)c1)c1cc(Cl)ccc1NS(=O)(=O)c1ccc(Oc2ccccc2Cl)cc1 sit within?
Result block: high group

Query block: Which of the defined bands does the recorded inhibition of CC(C)CCN(CCC(C)C)C(=O)c1cc(Cl)ccc1NS(=O)(=O)c1ccc(Oc2ccccc2Cl)cc1 sit within?
Result block: low group

Query block: Which of the defined bands does the recorded inhibition of O=C(NCCCSc1ccccc1)c1cc(Cl)ccc1NS(=O)(=O)c1ccc(Oc2ccccc2Cl)cc1 sit within?
Result block: middle group

Query block: Which of the defined bands does the recorded inhibition of CC(=O)N1CCC(N(C)C(=O)c2cc(Cl)ccc2NS(=O)(=O)c2ccc(Oc3ccccc3Cl)cc2)CC1 sit within?
Result block: low group

Query block: Which of the defined bands does the recorded inhibition of O=C(Nc1ccc2c(c1)OCCO2)c1cc(Cl)ccc1NS(=O)(=O)c1ccc(Oc2ccccc2Cl)cc1 sit within?
Result block: high group

Query block: Which of the defined bands does the recorded inhibition of O=C(Nc1ccc(-c2ccccc2)cc1)c1cc(Cl)ccc1NS(=O)(=O)c1ccc(Oc2ccccc2Cl)cc1 sit within?
Result block: middle group

Query block: Which of the defined bands does the recorded inhibition of O=C(c1cc(Cl)ccc1NS(=O)(=O)c1ccc(Oc2ccccc2Cl)cc1)N1CCC(N2CCCC2=O)CC1 sit within?
Result block: low group

Query block: Which of the defined bands does the recorded inhibition of O=C(Nc1ccc(I)cc1)c1cc(Cl)ccc1NS(=O)(=O)c1ccc(Oc2ccccc2Cl)cc1 sit within?
Result block: high group

Query block: Which of the defined bands does the recorded inhibition of O=C(CNC(=O)c1cc(Cl)ccc1NS(=O)(=O)c1ccc(Oc2ccccc2Cl)cc1)c1ccc(O)cc1 sit within?
Result block: high group

Query block: Which of the defined bands does the recorded inhibition of O=C(Nc1cc(F)c(Br)c(F)c1)c1cc(Cl)ccc1NS(=O)(=O)c1ccc(Oc2ccccc2Cl)cc1 sit within?
Result block: middle group

###

biological target: Nonstructural protein 3 (Zika virus); conditions: PRVABC59, Concentration 50.0 uM, Number of replicates 1.0
In all, about 2,700 compounds went through this assay and about 160 (5.9%) showed an effect of 50% or more. The entries come from a sample that favours strong results as a whole.
measured_parameter: inhibition (%)
Only the number, expressed in %, is required.

As a guide, the following entries are already answered.
{"smiles_entry": "O=Cc1ccc(N2CCC(C(=O)N3CCC[C@H]3c3cccc(F)c3)CC2)cc1", "measured_on": "Nonstructural protein 3 (Zika virus)", "unit": "%", "inhibition": 24.6}
{"smiles_entry": "CC(C)c1cccc(C(C)C)c1NC(=O)C1CCN(c2ccc(C=O)cc2)CC1", "measured_on": "Nonstructural protein 3 (Zika virus)", "unit": "%", "inhibition": 22.1}
{"smiles_entry": "COc1ccccc1OCCCN(C)C(=O)C1CCN(c2ccc(C=O)cc2)CC1", "measured_on": "Nonstructural protein 3 (Zika virus)", "unit": "%", "inhibition": 22.6}
{"smiles_entry": "O=Cc1ccc(N2CCC(C(=O)Nc3cc(Cl)cc(Cl)c3O)CC2)cc1", "measured_on": "Nonstructural protein 3 (Zika virus)", "unit": "%", "inhibition": 92.4}
{"smiles_entry": "O=Cc1ccc(N2CCC(C(=O)N3CCC(Cc4ccccc4)CC3)CC2)cc1", "measured_on": "Nonstructural protein 3 (Zika virus)", "unit": "%", "inhibition": 24.7}

Query block: Field request: inhibition | item: O=Cc1ccc(N2CCC(C(=O)Nc3cccc(Br)c3)CC2)cc1
Result block: 23.9

Query block: Field request: inhibition | item: Cc1ccc(CN(C(=O)C2CCN(c3ccc(C=O)cc3)CC2)C2CC2)s1
Result block: 27.6

Query block: Field request: inhibition | item: O=Cc1ccc(N2CCC(C(=O)Nc3nc4cc(Cl)ccc4s3)CC2)cc1
Result block: 22.7

Query block: Field request: inhibition | item: O=Cc1ccc(N2CCC(C(=O)Nc3cc(Cl)nc(Cl)n3)CC2)cc1
Result block: 17.4

Query block: Field request: inhibition | item: O=Cc1ccc(N2CCC(C(=O)NCCc3cc(F)cc(F)c3)CC2)cc1
Result block: 19.3

###

target: Nonstructural protein 3 (Zika virus); details: PRVABC59, Concentration 15.0 uM, Number of replicates 1.0
Out of some 2,700 compounds screened, about 160 (5.9%) showed an effect of 50% or more. Many of the other results were omitted from the sample, so strong results are more common in it than they were.
measured_parameter: inhibition

{"smiles_entry": "O=C(N[C@H](c1ccccc1)[C@@H](O)c1ccccc1)c1cc(Cl)ccc1NS(=O)(=O)c1ccc(Oc2ccccc2Cl)cc1", "value_observed": "45.7%"}
{"smiles_entry": "O=C(N[C@H](c1ccccc1)C(F)(F)F)c1cc(Cl)ccc1NS(=O)(=O)c1ccc(Oc2ccccc2Cl)cc1", "value_observed": "60.6%"}
{"smiles_entry": "O=C(NCc1ccc(-c2cccs2)cc1)c1cc(Cl)ccc1NS(=O)(=O)c1ccc(Oc2ccccc2Cl)cc1", "value_observed": "28.5%"}

Query block: Field request: inhibition | item: O=C(Nc1ccccc1Oc1ccccc1)c1cc(Cl)ccc1NS(=O)(=O)c1ccc(Oc2ccccc2Cl)cc1
Result block: 54.2%

###

target: Nonstructural protein 3 (Zika virus); settings: PRVABC59, Concentration 15.0 uM, Number of replicates 1.0
Out of some 2,700 compounds screened, about 160 (5.9%) showed an effect of 50% or more. This is one part of a sample in which strong results are shown more often than they occur.
Entries and their inhibition
Only the number, expressed in %, is required.

{"smiles_entry": "O=C(c1cc(Cl)ccc1NS(=O)(=O)c1ccc(Oc2ccccc2Cl)cc1)N1CCN(c2ncccn2)CC1", "measured_on": "Nonstructural protein 3 (Zika virus)", "measured_parameter": "inhibition", "value_observed": 7.48}
{"smiles_entry": "O=C(Nc1cccc(Cl)c1Br)c1cc(Cl)ccc1NS(=O)(=O)c1ccc(Oc2ccccc2Cl)cc1", "measured_on": "Nonstructural protein 3 (Zika virus)", "measured_parameter": "inhibition", "value_observed": 25.4}
{"smiles_entry": "N#C[C@@H](NC(=O)c1cc(Cl)ccc1NS(=O)(=O)c1ccc(Oc2ccccc2Cl)cc1)c1ccc(F)cc1", "measured_on": "Nonstructural protein 3 (Zika virus)", "measured_parameter": "inhibition", "value_observed": 28.7}
{"smiles_entry": "COc1ccc(Cl)c(NC(=O)c2cc(Cl)ccc2NS(=O)(=O)c2ccc(Oc3ccccc3Cl)cc2)c1", "measured_on": "Nonstructural protein 3 (Zika virus)", "measured_parameter": "inhibition", "value_observed": 25.8}
{"smiles_entry": "O=C(NCc1cccc(-n2cccn2)c1)c1cc(Cl)ccc1NS(=O)(=O)c1ccc(Oc2ccccc2Cl)cc1", "measured_on": "Nonstructural protein 3 (Zika virus)", "measured_parameter": "inhibition", "value_observed": 33.4}
{"smiles_entry": "O=C(Nc1ccc(F)c(Br)c1)c1cc(Cl)ccc1NS(=O)(=O)c1ccc(Oc2ccccc2Cl)cc1", "measured_on": "Nonstructural protein 3 (Zika virus)", "measured_parameter": "inhibition", "value_observed": 48.7}

Query block: Hello, I am looking for reported inhibition with Nonstructural protein 3 (Zika virus) for O=C(NCCNC(=O)c1cc(Cl)ccc1NS(=O)(=O)c1ccc(Oc2ccccc2Cl)cc1)c1ccccc1Cl . Could you help?
Result block: 25

Query block: Hello, I am looking for reported inhibition with Nonstructural protein 3 (Zika virus) for O=C(NCCc1ccc(Cl)cc1Cl)c1cc(Cl)ccc1NS(=O)(=O)c1ccc(Oc2ccccc2Cl)cc1 . Could you help?
Result block: 27.1

Data origin: ChEMBL document CHEMBL5606458
